// UniProtKB P06276 IC50 records
Please state the figure in µM; there is no need to write the unit.

Lab request: please report IC50 under test system UniProtKB P06276 for `Cc1ccc(NC(=S)N/N=C(/CSc2nnc(-c3ccc([N+](=O)[O-])cc3)[nH]2)c2ccc(Br)cc2)c([N+](=O)[O-])c1`
11.2

Identify the measured IC50 of `O=[N+]([O-])c1ccc(-c2nnc(SC/C(=N/NC(=S)Nc3ccccc3)c3ccc(Cl)c(Cl)c3)[nH]2)cc1` for UniProtKB P06276.
3.1

UniProtKB P06276 / IC50 / `Cc1ccc(-c2ccc(NC(=S)N/N=C(/CSc3nnc(-c4ccc([N+](=O)[O-])cc4)[nH]3)c3ccc(Br)cc3)cc2)cc1` : value?
14.1

---
Missing value: IC50, UniProtKB P06276, entry `CN(C)c1cc(Cl)c(NC(=S)N/N=C(/CSc2nnc(-c3ccc([N+](=O)[O-])cc3)[nH]2)c2ccc(-c3ccccc3)cc2)cc1Cl` . Fill in?
12.3

Lookup: IC50 / UniProtKB P06276 / `COc1ccc(OC)c(/C(CSc2nnc(-c3ccc([N+](=O)[O-])cc3)[nH]2)=N\NC(=S)Nc2ccc([N+](=O)[O-])cc2)c1`
4.3

Lab note: need IC50 for `O=[N+]([O-])c1ccc(NC(=S)N/N=C(/CSc2nnc(-c3ccc([N+](=O)[O-])cc3)[nH]2)c2ccc(Cl)c(Cl)c2)cc1` on UniProtKB P06276, anyone have it?
1.7

Form field - read-out: IC50; system: UniProtKB P06276; submitted item: `O=[N+]([O-])c1ccc(-c2nnc(SC/C(=N/NC(=S)Nc3cc(Cl)c(Cl)cc3[N+](=O)[O-])c3ccccc3Br)[nH]2)cc1`
3.9

###

Reported pIC50 values for a set of compounds
biological target: butyrylcholinesterase (BuChE) (Homo sapiens)
Sequence (P06276 29-602): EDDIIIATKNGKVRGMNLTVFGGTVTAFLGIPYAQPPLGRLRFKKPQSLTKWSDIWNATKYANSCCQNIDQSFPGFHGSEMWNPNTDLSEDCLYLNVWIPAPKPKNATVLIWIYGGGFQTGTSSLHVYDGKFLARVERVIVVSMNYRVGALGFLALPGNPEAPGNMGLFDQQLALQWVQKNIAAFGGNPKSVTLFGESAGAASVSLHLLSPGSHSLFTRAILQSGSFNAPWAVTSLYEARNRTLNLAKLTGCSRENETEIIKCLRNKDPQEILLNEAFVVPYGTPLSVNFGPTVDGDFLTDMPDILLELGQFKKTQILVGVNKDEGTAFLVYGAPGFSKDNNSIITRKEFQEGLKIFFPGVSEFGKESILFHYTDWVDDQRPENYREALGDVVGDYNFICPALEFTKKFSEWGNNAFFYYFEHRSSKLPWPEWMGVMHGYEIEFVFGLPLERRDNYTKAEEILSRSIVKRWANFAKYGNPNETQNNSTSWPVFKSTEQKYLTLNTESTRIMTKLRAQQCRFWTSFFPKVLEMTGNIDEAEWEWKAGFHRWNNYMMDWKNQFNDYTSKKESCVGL
// pIC50: -log10(molar conc.)

Please review the following examples before continuing.
Reported pIC50 for `Cc1ccc(-c2ccc(NC(=S)N/N=C(/CSc3nnc(-c4ccc([N+](=O)[O-])cc4)[nH]3)c3ccc(Cl)c(Cl)c3)cc2)cc1` : what is it?
5.34

So what does the record say about pIC50 for `COc1ccc(OC)c(/C(CSc2nnc(-c3ccc([N+](=O)[O-])cc3)[nH]2)=N\NC(=S)Nc2ccc(C)cc2[N+](=O)[O-])c1` ?
5.33

// below: pIC50 requested for another compound
Which pIC50 is listed for `COc1cccc(/C(CSc2nnc(-c3ccc([N+](=O)[O-])cc3)[nH]2)=N\NC(=S)Nc2ccc(C)cc2[N+](=O)[O-])c1` ?
5.60

###

acetylcholinesterase (AChE) (Homo sapiens, UniProt P22303) data, read-out pIC50
Sequence (P22303 32-614, species assumed): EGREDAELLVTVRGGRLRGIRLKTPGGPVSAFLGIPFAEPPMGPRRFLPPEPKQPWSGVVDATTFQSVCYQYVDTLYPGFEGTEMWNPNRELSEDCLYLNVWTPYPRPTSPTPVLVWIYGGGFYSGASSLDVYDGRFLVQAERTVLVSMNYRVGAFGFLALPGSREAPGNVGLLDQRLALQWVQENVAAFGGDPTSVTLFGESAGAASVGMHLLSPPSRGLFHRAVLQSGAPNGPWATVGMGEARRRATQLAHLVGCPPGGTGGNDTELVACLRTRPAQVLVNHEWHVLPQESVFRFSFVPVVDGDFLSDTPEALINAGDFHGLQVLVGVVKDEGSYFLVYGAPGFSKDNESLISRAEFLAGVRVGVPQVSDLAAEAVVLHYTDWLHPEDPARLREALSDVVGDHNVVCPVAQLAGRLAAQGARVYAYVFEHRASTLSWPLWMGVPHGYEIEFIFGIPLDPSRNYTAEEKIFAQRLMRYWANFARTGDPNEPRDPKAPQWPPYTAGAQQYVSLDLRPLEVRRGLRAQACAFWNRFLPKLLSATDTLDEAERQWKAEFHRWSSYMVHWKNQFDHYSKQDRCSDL
pIC50 (log units): -log10 of the concentration in mol/L.

Need pIC50, item `Cc1ccc(/C(CSc2nnc(-c3ccc([N+](=O)[O-])cc3)[nH]2)=N\NC(=S)Nc2cc(Cl)c(Cl)cc2[N+](=O)[O-])c([N+](=O)[O-])c1`
5.34

Which pIC50 reading was recorded for the compound `Cc1ccc(NC(=S)N/N=C(/CSc2nnc(-c3ccc([N+](=O)[O-])cc3)[nH]2)c2ccc(Br)cc2)c([N+](=O)[O-])c1` ?
5.04

Please report the recorded pIC50 for `Cc1ccc(NC(=S)N/N=C(/CSc2nnc(-c3ccc([N+](=O)[O-])cc3)[nH]2)c2ccccc2[N+](=O)[O-])c([N+](=O)[O-])c1` .
5.89

Please report the recorded pIC50 for `CN(C)c1cc(Cl)c(NC(=S)N/N=C(/CSc2nnc(-c3ccc([N+](=O)[O-])cc3)[nH]2)c2ccc(-c3ccccc3)cc2)cc1Cl` .
4.95

Item `O=[N+]([O-])c1ccc(NC(=S)N/N=C(/CSc2nnc(-c3ccc([N+](=O)[O-])cc3)[nH]2)c2ccccc2[N+](=O)[O-])cc1` has what recorded pIC50?
5.85

Need pIC50 of `O=[N+]([O-])c1ccc(NC(=S)N/N=C(/CSc2nnc(-c3ccc([N+](=O)[O-])cc3)[nH]2)c2ccc(Cl)c(Cl)c2)cc1` , thanks.
6.15
